Target: human GPR119 (Homo sapiens)
Sequence (Q8TDV5 whole entry): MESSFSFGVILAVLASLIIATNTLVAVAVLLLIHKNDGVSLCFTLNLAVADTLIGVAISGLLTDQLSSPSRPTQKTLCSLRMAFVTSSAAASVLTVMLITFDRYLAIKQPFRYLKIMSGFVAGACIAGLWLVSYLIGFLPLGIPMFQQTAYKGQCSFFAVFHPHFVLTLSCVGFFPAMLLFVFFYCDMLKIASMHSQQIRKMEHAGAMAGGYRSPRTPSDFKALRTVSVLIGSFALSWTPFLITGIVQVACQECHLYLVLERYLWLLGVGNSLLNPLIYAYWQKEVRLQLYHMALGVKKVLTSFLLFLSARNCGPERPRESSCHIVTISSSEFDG
Test: Cyclic AMP assay in stable cell line (Flp-In-CHO-hGPR119, HTRF)
Conditions: Flp-In-CHO-hGPR119 cells, intracellular cAMP by HTRF, 1 mM IBMX, 37° C. for 30 minutes
pEC50: −log10 of the molar value.
MEASURED_ENDPOINT: pEC50

Example cases with answers are listed next.
{"MOLECULE": "CC(C)c1noc(N2CCC(COC3CN(c4ncc5c(n4)CCN(S(C)(=O)=O)C5)C3)CC2)n1 [Example G11]", "OBSERVED_RESULT": 6.77}
{"MOLECULE": "CCc1cnc(N2CCC(CCCNc3ncc4c(n3)CCN(S(C)(=O)=O)C4)CC2)nc1 [Example D5]", "OBSERVED_RESULT": 8.15}
{"MOLECULE": "C[C@H]1CN(C(=O)OC2(C)CC2)CC[C@H]1COC1CN(c2ncc3c(n2)CCN(S(C)(=O)=O)C3)C1 [Example J2]", "OBSERVED_RESULT": 6.76}
{"MOLECULE": "CCc1cnc(N2CCC(COC3CCN(c4ncc5c(n4)CCN(S(C)(=O)=O)C5)CC3)CC2)nc1 [Example G9]", "OBSERVED_RESULT": 6.50}
{"MOLECULE": "CS(=O)(=O)N1CCc2nc(CNCCc3cccc(Br)c3)ncc2C1 [Example B3]", "OBSERVED_RESULT": 5.61}
{"MOLECULE": "CCc1cnc(N2CCC(COC3CN(c4ncc5c(n4)CCN(S(C)(=O)=O)C5)C3)CC2)nc1 [Example G1]", "OBSERVED_RESULT": 8.05}
{"MOLECULE": "CCc1cnc(-c2ccc(CCCOc3ncc4c(n3)CCN(S(C)(=O)=O)C4)cc2)nc1 [Example G15]", "OBSERVED_RESULT": 6.44}
{"MOLECULE": "CC1(OC(=O)N2CCC(Cc3cn(-c4ncc5c(n4)CCN(S(C)(=O)=O)C5)cn3)CC2)CC1 [Example G18]", "OBSERVED_RESULT": 6.91}

I: CC1(OC(=O)N2CCC(CCCNc3ncc4c(n3)CCN(S(C)(=O)=O)C4)CC2)CC1 [Example D7]
II: CCc1cnc(N2CCC(C(C)OC3CN(c4ncc5c(n4)CCN(S(C)(=O)=O)C5)C3)CC2)nc1 (racemic) [Example H1]
III: CCc1cnc(N2CCC(CCCOc3ccc4c(n3)CCN(S(C)(=O)=O)C4)CC2)nc1 [Example F1]
IV: CC(C)OC(=O)N1CCC(N2CCC3CN(S(C)(=O)=O)CCC3C2=O)CC1 (stereo not shown) [Example A5]
V: CCc1cnc(N2CCC(COCC3CN(c4ncc5c(n4)CCN(S(C)(=O)=O)C5)C3)CC2)nc1 [Example G5]
Query string: Sort (5 molecules) by pEC50: min first. Put the labels in the requested order and write them down.
Result string: IV, V, II, III, I
